target: Serine/threonine-protein kinase pim-2 (Homo sapiens); assay: Inhibition of Pim2 assessed as residual enzyme activity at 10 uM
Calls of active or inactive are those of the source. The calls are words filed in the database; no cut-off is given here.
quantityName: Activity

Ask | Return value of Activity for input "CC1(C)[C@@H]2CC[C@@]1(C)c1nc3cc4cn[nH]c4cc3nc12" , no commentary.
Reply | 76%

Ask | Return value of Activity for input CC1Cc2nc3cc4cn[nH]c4cc3nc2C1C (racemic) , no commentary.
Reply | inactive

Ask | Return value of Activity for input "Nc1cc2cn[nH]c2cc1N" , no commentary.
Reply | inactive

----------
target: Serine/threonine-protein kinase pim-1 (Homo sapiens) (UniProt P11309); test: Inhibition of Pim1 assessed as residual enzyme activity at 10 uM
Sequence (P11309 whole entry, looked up): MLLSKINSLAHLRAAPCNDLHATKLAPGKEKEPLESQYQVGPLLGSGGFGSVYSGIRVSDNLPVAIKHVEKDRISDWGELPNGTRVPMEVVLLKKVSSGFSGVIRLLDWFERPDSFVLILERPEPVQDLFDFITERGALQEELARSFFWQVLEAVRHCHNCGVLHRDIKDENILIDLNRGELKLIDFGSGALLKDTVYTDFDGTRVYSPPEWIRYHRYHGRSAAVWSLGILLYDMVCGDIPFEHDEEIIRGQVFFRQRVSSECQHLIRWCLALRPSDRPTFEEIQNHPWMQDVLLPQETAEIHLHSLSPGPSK
quantityName: Activity (%)

Ask | Return value of Activity for input c1ccc(C2Cc3nc4cc5cn[nH]c5cc4nc3C2)cc1 (racemic) , no commentary.
Reply | 83

Ask | Return value of Activity for input CC1Cc2nc3cc4[nH]ncc4cc3nc2C1C (racemic) , no commentary.
Reply | 59

Ask | Return value of Activity for input "c1n[nH]c2cc3nc4c(nc3cc12)CCC4" , no commentary.
Reply | 66.6

(1) CC1(C)[C@@H]2CC[C@@]1(C)c1nc3cc4cn[nH]c4cc3nc12
(2) CC1Cc2nc3cc4cn[nH]c4cc3nc2C1C (racemic)
Ask | Please indicate which entry, 1 or 2 , has the lower recorded Activity value. Give the label under which the chosen entry appears.
Reply | 1

----------
target: Serine/threonine-protein kinase pim-2 (Homo sapiens); experiment: Inhibition of Pim2 assessed as residual enzyme activity at 10 uM
Active and inactive are the calls of the source. No cut-off for these calls is given here.
quantityName: Activity

Illustrative cases are given below, each with its answer.
Ask | Return value of Activity for input "c1n[nH]c2cc3nc4c(nc3cc12)CCC4" , no commentary.
Reply | inactive

Ask | Return value of Activity for input "c1n[nH]c2cc3nc4c(nc3cc12)CCCC4" , no commentary.
Reply | inactive

Ask | Return value of Activity for input c1ccc(C2Cc3nc4cc5cn[nH]c5cc4nc3C2)cc1 (racemic) , no commentary.
Reply | inactive

Ask | Return value of Activity for input CC1Cc2nc3cc4[nH]ncc4cc3nc2C1C (racemic) , no commentary.
Reply | inactive

Ask | Return value of Activity for input "CCc1nc2cc3cn[nH]c3cc2nc1CC" , no commentary.
Reply | inactive

# ---- query compound ----
Ask | Return value of Activity for input "CC1(C)[C@H]2CC[C@]1(C)c1nc3cc4[nH]ncc4cc3nc12" , no commentary.
Reply | 78%

----------
test system: PA-1; assay: Antiproliferative activity against human PA1 cells after 48 hrs by resazurin reduction test; format: functional, cell-based; settings: PA-1, 48 h
quantityName: pIC50
The quantity pIC50 is defined as the negative base-10 logarithm of the molar concentration.

Illustrative cases are given below, each with its answer.
Ask | Return value of pIC50 for input "CCc1nc2cc3cn[nH]c3cc2nc1CC" , no commentary.
Reply | 5.19

Ask | Return value of pIC50 for input CC1Cc2nc3cc4cn[nH]c4cc3nc2C1C (racemic) , no commentary.
Reply | 5.33

Ask | Return value of pIC50 for input c1ccc(C2Cc3nc4cc5cn[nH]c5cc4nc3C2)cc1 (racemic) , no commentary.
Reply | 5.39

Ask | Return value of pIC50 for input CC1Cc2nc3cc4[nH]ncc4cc3nc2C1C (racemic) , no commentary.
Reply | 5.21

More entries:
Ask | Return value of pIC50 for input "c1n[nH]c2cc3nc4c(nc3cc12)CCCC4" , no commentary.
Reply | 4.80

Reference for the values: ChEMBL document CHEMBL1275327
